Assay: Specific activity of purified CHI, absorbance decrease at 384 nm, eriodictyol chalcone; also: unit not given here
Format: biochemical
Settings: purified CHI in 50 mM PBS, 100 μM substrate, 25° C.
metric name: Specific activity, Eriodictyol chalcone
Enter a number only.

Lookup result for CHIera Mut1: Chalcone isomerase variant 1 from Eubacterium ramulus, genetically engineered (protein, listed as Eubacterium ramulus) MADFKFEPMRSLIYVDCVSEDYRPKLQRWIYKVHIPDSISKFEPYVTKYAFYPSFPIPPQGDRFGYARMQLTEHHWLVSELDPRLEINAIAETFPMDVLVWQGQIPAAAHTDAQIDSDGDAGRAAGKSNNAEGNPFIFAFLPMWWEKDLKGKGRTIEDGANYRFNMTIGFPEGVDKAEGEKWLFEKVVPILQAAPECTRVLASAVKKDINGCVMDWVLEIWFENQSGWYKVMVDDMKALEKPSWAQQDAFPFLKPYHNVCSAAVADYTPSNNLANYRGYITMR ; measured Specific activity, Eriodictyol chalcone: 59.5

Lookup result for CHIera Mut3: Chalcone isomerase variant 3 from Eubacterium ramulus, genetically engineered (protein, listed as Eubacterium ramulus) MADFKFEPMRSLIYVDCVSEDYRPKLQRWIYKVHIPDSISNFEPYVTKYAFYPSFPIPPQGDRFGYARMQLTEHHWLVSELDPRLEIKAIAETFPMDVLVWQGQIPAAAHTDAQIDSDGDAGRAAGKSNNAEGNPFIFAFLPMWWEKDLKGKGRTIEDGANYRFNMTIGFPEGVDKAEGEKWLFEKVVPILQAAPECTRVLASAVKKDINGCVMDWVLEIWFENQSGWYKVMVDDMKALEKPSWAQQDAFPFLKPYHNVCSAAVADYTPSNNLANYRGYITMR ; measured Specific activity, Eriodictyol chalcone: 39.2

Lookup result for CHI10: Chalcone isomerase from Clostridium sp. SY8519, access no. WP_013977558.1 (protein, Clostridium sp. SY8519) ADFEFNPMRSLIYIDCVKNDYRHKLQYWLYKHHIPDSIAKFEPYVSKYAFYSALPVPEDGEEFGTYNYQLTEHYWLCNPLTADFAVNSLQESFTPDVLKWQGIIPDIDITPEMMAAMQNADDARASEGSEAPGFDLPPFIFAFLPLSWEFQTKGEKLTIEDGPNYRWQFLVKYPEAADAEQADKWLMEEVIPAFAQMDEVKRILSSKVKQEVNGCVYYRVVEMWFDSPSDWHRAVKEKTGAISKPEWASTDSFPYLRPKHEMASIFLSDIPTTDNLLQYRGFIPMR ; measured Specific activity, Eriodictyol chalcone: 2.5

Lookup result for CHIera Mut4: Chalcone isomerase variant 4 from Eubacterium ramulus, genetically engineered (protein, listed as Eubacterium ramulus) MADFKFEPMRSLIYVDCVSEDYRPKLQRWIYKVHIPDSISQFEPYVTKYAFYPSFPIPPQGDRFGYARMQLTEHHWLVSELDPRLEIKAIAETFPMDVLVWQGQIPAAAHTDAQIDSDGDAGRAAKKSNNAEGNPFIFAFLPMWWEKDLKGKGRTIEDGANYRFNMTIGFPEGVDKAEGEKWLFEKVVPILQAAPECTRVLASAVKKDINGCVMDWVLEIWFENQSGWYKVMVDDMKALEKPSWAQQDAFPFLKPYHNVCSAAVADYTPSNNLANYRGYITMR ; measured Specific activity, Eriodictyol chalcone: 8.9

Lookup result for CHI3: Chalcone isomerase from Clostridium sp. JN500901, access no. WP_119972745.1 (protein, Clostridium sp. JN500901) SIEFKPMRSLIYVDVVKEDYRHMLKHWLYYHHIPDSISQFGPYVTKYAFYPALPTPPDGERFGTHRMQLTEHYWLVNPLTPEFKNKTMTEYFPVDVLKWQGNVPDDNEVAILEGKETEKVESGDAARSTGGDNGMPPFIWAFVPISWEEDLKGEGRSMEDGPNYRWQFVMKYPDGVPMEEGDKWFYKEVIPKFQDSPDVTRILTSKIIQNINDCPYQRIVEMWFNCPSGWHRAAVEKAREIKKPSWAKYDEFPYLKPKFEISSLFLTDIAESDNYTQYRGFIPMR ; measured Specific activity, Eriodictyol chalcone: 13.2

Lookup result for CHIera Mut8: Chalcone isomerase variant 8 from Eubacterium ramulus, genetically engineered (protein, listed as Eubacterium ramulus) MADFKFEPMRSLIYVDCVSEDYRPKLQRWIYKVHIPDSISKFEPYVTKYAFYPSFPIPPQGDRFGYARMQLTEHHWLVSPLDPRLEINAIAETFPMDVLVWQGQIPAAAHTDAQIDSDGDAGEAARKSNNAEGNPFIFAFLPMWWEKDLKGKGRTIEDGANYRFNMTIGFPEGVDKAEGEKWLFEKVVPILQAAPECTRVLASAVKKDINGCVMDWVLEIWFENQSGWYKVMVDDMKALEKPSWAQQDAFPFLKPYHNVCSAAVADYTPSNNLANYRGYITMR ; measured Specific activity, Eriodictyol chalcone: 49.0

Lookup result for CHI9: Chalcone isomerase from Roseburia sp. OM02-15, access no. WP_118702262.1 (protein, Roseburia sp. OM02-15) GEITYQPLRSLIYVDCVKEEYRHKLQHWLYYYHAPESIAKFEPWVTKYAFYNALPTPPQGERFGTYRMQLTEHYWMVNPMSQESLVNSLNEYFPIDAMIWQGTLPENAKEDGFMADGEAARASGGDNGCPPFIFAFLPIFWEQDLKGAGRTMVDGPNYRWQFLVSYPEGHKEDGDQWMMNEVLPAFAAMPEVTRMMTSKVKKEINNCHMDRCVEMWFDGPEEWYHCAVENAASFKKPEWAEYDNFPYLRPQFQFASLFLTDIATSDNLKQYRGYLPMR ; measured Specific activity, Eriodictyol chalcone: 69.7

Origin of the recorded values: patent US20240150797A1
